Origin of the recorded values: patent US20240067637A1

- tested target: human recombinant GABAA α5β3γ2 receptor (Homo sapiens (Human), UniProt P18507+P31644)
- Sequence (P31644 32-462): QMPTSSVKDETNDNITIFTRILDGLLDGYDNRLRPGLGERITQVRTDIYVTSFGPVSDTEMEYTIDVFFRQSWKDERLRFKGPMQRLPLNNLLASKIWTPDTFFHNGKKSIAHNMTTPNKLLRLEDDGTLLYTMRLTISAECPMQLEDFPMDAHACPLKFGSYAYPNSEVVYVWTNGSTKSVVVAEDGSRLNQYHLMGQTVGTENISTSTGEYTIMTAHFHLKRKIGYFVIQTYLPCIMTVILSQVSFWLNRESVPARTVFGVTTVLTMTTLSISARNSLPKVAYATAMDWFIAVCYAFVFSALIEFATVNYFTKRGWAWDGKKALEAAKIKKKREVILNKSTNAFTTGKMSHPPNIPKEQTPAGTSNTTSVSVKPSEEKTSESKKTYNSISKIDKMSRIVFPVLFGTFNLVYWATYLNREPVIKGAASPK
- Sequence (P28472 26-473 partner): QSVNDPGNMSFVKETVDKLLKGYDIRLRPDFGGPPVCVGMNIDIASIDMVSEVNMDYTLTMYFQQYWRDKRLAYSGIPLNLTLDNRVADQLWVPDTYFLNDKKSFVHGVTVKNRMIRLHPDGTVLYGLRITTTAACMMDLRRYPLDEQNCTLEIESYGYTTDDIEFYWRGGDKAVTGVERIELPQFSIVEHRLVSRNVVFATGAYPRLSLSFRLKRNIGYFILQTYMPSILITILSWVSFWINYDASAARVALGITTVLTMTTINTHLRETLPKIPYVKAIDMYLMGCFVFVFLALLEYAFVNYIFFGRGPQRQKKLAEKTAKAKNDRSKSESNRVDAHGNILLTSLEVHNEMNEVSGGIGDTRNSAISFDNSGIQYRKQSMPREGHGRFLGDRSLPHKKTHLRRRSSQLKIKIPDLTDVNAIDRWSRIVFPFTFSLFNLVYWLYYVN
- Sequence (P18507 40-475): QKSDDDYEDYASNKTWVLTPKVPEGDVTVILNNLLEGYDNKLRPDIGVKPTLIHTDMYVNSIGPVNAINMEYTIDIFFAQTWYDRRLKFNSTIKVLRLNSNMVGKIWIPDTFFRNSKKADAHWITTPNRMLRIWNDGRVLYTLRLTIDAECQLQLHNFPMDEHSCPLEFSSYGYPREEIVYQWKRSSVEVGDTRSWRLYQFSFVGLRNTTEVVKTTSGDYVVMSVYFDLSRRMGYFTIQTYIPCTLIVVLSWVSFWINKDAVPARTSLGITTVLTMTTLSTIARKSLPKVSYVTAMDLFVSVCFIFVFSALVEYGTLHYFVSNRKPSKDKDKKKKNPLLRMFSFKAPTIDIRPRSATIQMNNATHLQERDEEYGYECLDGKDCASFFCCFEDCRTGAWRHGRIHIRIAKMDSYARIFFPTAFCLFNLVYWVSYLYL
- protocol text: Radioligand ([3H]Ro151788) receptor binding assay
- condition description: membranes of HEK cells expressing human recombinant GABAA α5β3γ2; 0.5 nM [3H]Ro151788; 60 minutes at 4° C.; read-out: hGABAA α5 Ki
recorded endpoint: log10 of Ki (log10 of the value in nM)
The base-10 logarithm of Ki, taken with Ki in nM, is what appears here.

// solved cases for log10 of Ki follow
Problem: Lab note: need log10 of Ki for Cc1ccc(-n2nnc(C)c2COc2cc3c(cn2)CN(C(=O)C2CC2)CC3)cn1 on human recombinant GABAA α5β3γ2 receptor (Homo sapiens (Human), UniProt P18507+P31644), anyone have it?
Result: 1.34

Problem: What do we get for Cc1ccc(-n2nnc(C)c2COc2cc3c(cn2)CN(C(=O)C(C)C)CC3)cn1 ?
Result: 1.48

Problem: What do we get for Cc1ccc(-n2nnc(C)c2COc2cc3c(cn2)CN(C(=O)CF)CC3)cn1 ?
Result: 0.82

Problem: What do we get for Cc1nnn(-c2ccc(C(F)F)nc2)c1COc1cc2c(cn1)CN(C(=O)CF)CC2 ?
Result: -0.05

Problem: What do we get for CCC(=O)N1CCc2cc(OCc3c(-c4ccc(C)nc4)nnn3C)ncc2C1 ?
Result: 1.52

Problem: What do we get for CC(=O)N1CCc2cc(OCc3c(-c4ccc(C(F)(F)F)nc4)noc3C)ncc2C1 ?
Result: 0.99

Problem: What do we get for Cc1ccc(-c2noc(C)c2COc2cc3c(cn2)CN(C(=O)c2cccnc2)CC3)cn1 ?
Result: 0.78

Problem: What do we get for CC(=O)N1CCc2cc(OCc3c(-c4ccc(C(F)(F)F)nc4)noc3C)nnc2C1 ?
Result: 0.91

***
Problem: Lab note: need log10 of Ki for Cc1ccc(-c2noc(C)c2COc2cc3c(cn2)CN(C(=O)C2CC(=O)N(C)C2)CC3)cn1 (stereo not shown) on human recombinant GABAA α5β3γ2 receptor (Homo sapiens (Human), UniProt P18507+P31644), anyone have it?
Result: 0.92

Problem: What do we get for Cc1ccc(-c2noc(C)c2COc2cc3c(nn2)CN(C(=O)N2CCOCC2)CC3)cn1 ?
Result: 1.11

* * *

- tested target: human recombinant GABAA α5β3γ2 receptor (Homo sapiens (Human), UniProt P18507+P31644)
- protocol text: Radioligand ([3H]Ro151788) receptor binding assay
- condition description: membranes of HEK cells expressing human recombinant GABAA α5β3γ2; 0.5 nM [3H]Ro151788; 60 minutes at 4° C.; read-out: hGABAA α5 Ki
Each entry below carries its recorded pKi.
Answer as the number alone; pKi is minus log10 of concentration in mol/L.

// solved cases for pKi follow
Problem: Given Cc1ccc(-c2nnn(C)c2COc2cc3c(cn2)CN(C(=O)C2CC2)CC3)cn1 , state its recorded pKi.
Result: 7.28

Problem: What do we get for Cc1ccc(-c2noc(C)c2COc2cc3c(cn2)CN(C(=O)C2CCOCC2)CC3)cn1 ?
Result: 7.77

***
Problem: Given CC(=O)N1CCc2cc(OCc3c(C)nnn3-c3ccc(C)nc3)ncc2C1 , state its recorded pKi.
Result: 8.10

Problem: What do we get for Cc1ccc(-n2nnc(C)c2COc2cc3c(cn2)CN(C(=O)CC(C)C)CC3)cn1 ?
Result: 7.32

Problem: What do we get for Cc1ccc(-c2nnn(C)c2COc2cc3c(cn2)CN(C(=O)C(C)C)CC3)cn1 ?
Result: 7.37

* * *

Each entry below carries its recorded Ki.
- tested target: human recombinant GABAA α5β3γ2 receptor (Homo sapiens (Human), UniProt P18507+P31644)
- protocol text: Radioligand ([3H]Ro151788) receptor binding assay
- condition description: membranes of HEK cells expressing human recombinant GABAA α5β3γ2; 0.5 nM [3H]Ro151788; 60 minutes at 4° C.; read-out: hGABAA α5 Ki
Report as a plain number; the unit nM is understood.

// solved cases for Ki follow
Problem: Lab note: need Ki for Cc1nnn(-c2ccc(C(F)(F)F)nc2)c1COc1cc2c(cn1)CN(C(=O)C1CC1)CC2 on human recombinant GABAA α5β3γ2 receptor (Homo sapiens (Human), UniProt P18507+P31644), anyone have it?
Result: 31

Problem: What do we get for Cc1ccc(-c2noc(C)c2COc2cc3c(nn2)CN(C(=O)C(C)C)CC3)cn1 ?
Result: 4.3

Problem: What do we get for CC(=O)N1CCc2cc(OCc3c(-c4ccc(C)nc4)noc3C)nnc2C1 ?
Result: 2.3

Problem: What do we get for CCC(=O)N1CCc2cc(OCc3c(C)nnn3-c3ccc(C)nc3)ncc2C1 ?
Result: 20

Problem: What do we get for CCC(=O)N1CCc2cc(OCc3c(-c4ccc(C)nc4)noc3C)nnc2C1 ?
Result: 6

Problem: What do we get for CC(=O)N1CCc2cc(OCc3c(-c4ccc(C)nc4)nnn3C)ncc2C1 ?
Result: 22

Consider the additional molecule presented here.
Problem: Lab note: need Ki for CCC(=O)N1CCc2cc(OCc3c(C)nnn3-c3ccc(C(F)(F)F)nc3)ncc2C1 on human recombinant GABAA α5β3γ2 receptor (Homo sapiens (Human), UniProt P18507+P31644), anyone have it?
Result: 33

* * *

- tested target: human recombinant GABAA α5β3γ2 receptor (Homo sapiens (Human), UniProt P18507+P31644)
- protocol text: Radioligand ([3H]Ro151788) receptor binding assay
- condition description: membranes of HEK cells expressing human recombinant GABAA α5β3γ2; 0.5 nM [3H]Ro151788; 60 minutes at 4° C.; read-out: hGABAA α5 Ki
Threshold 9 nM. Ki below it: yes (1). Ki at it or above: no (0).

Problem: In the record for CC(=O)N1CCc2cc(OCc3c(C)nnn3-c3ccc(C(F)F)nc3)ncc2C1 , is Ki less than 9 nM?
Result: yes (1)

Problem: What do we get for Cc1nnn(-c2ccc(C(F)(F)F)nc2)c1COc1cc2c(cn1)CN(C(=O)C(C)C)CC2 ?
Result: no (0)

***
Problem: In the record for Cc1ccc(-c2noc(C)c2COc2cc3c(cn2)CN(C(=O)[C@H]2CCC(=O)N2C)CC3)cn1 , is Ki less than 9 nM?
Result: yes (1)

Problem: What do we get for CCC(=O)N1CCc2cc(OCc3c(C)nnn3-c3ccc(C(F)F)nc3)ncc2C1 ?
Result: yes (1)

Problem: What do we get for CC(=O)N1CCc2cc(OCc3c(-c4ccc(C)nc4)noc3C)ncc2C1 ?
Result: yes (1)

Problem: What do we get for Cc1ccc(-c2noc(C)c2COc2cc3c(cn2)CN(C(=O)C2CCOC2)CC3)cn1 (stereo not drawn) ?
Result: yes (1)

Problem: What do we get for Cc1ccc(-c2noc(C)c2COc2cc3c(cn2)CN(C(=O)c2ccncc2)CC3)cn1 ?
Result: no (0)

Problem: What do we get for CCN1CC(C(=O)N2CCc3cc(OCc4c(-c5ccc(C)nc5)noc4C)ncc3C2)CC1=O (stereo not drawn) ?
Result: yes (1)

* * *

- tested target: human recombinant GABAA α5β3γ2 receptor (Homo sapiens (Human), UniProt P18507+P31644)
- protocol text: Radioligand ([3H]Ro151788) receptor binding assay
- condition description: membranes of HEK cells expressing human recombinant GABAA α5β3γ2; 0.5 nM [3H]Ro151788; 60 minutes at 4° C.; read-out: hGABAA α5 Ki
Threshold 20 nM. Ki below it: Criterion met. Ki at it or above: Criterion not met.

Problem: In the record for Cc1ccc(-c2noc(C)c2COc2cc3c(cn2)CN(C(=O)CS(C)(=O)=O)CC3)cn1 [Example 5] , is Ki less than 20 nM?
Result: Criterion met

Problem: What do we get for Cc1ccc(-c2noc(C)c2COc2cc3c(cn2)CN(C(=O)C2CCC(=O)N(C)C2)CC3)cn1 (stereo not shown) [Example 20] ?
Result: Criterion met

Problem: What do we get for CC(=O)N1CCc2cc(OCc3c(C)nnn3-c3ccc(C(F)(F)F)nc3)nnc2C1 [Example 53] ?
Result: Criterion not met

Problem: What do we get for Cc1ccc(-c2noc(C)c2COc2cc3c(nn2)CN(C(=O)CF)CC3)cn1 [Example 30] ?
Result: Criterion met

Problem: What do we get for Cc1ccc(-c2noc(C)c2COc2cc3c(cn2)CN(C(=O)[C@@H]2CCC(=O)N2C)CC3)cn1 [Example 22] ?
Result: Criterion met

Problem: What do we get for Cc1ccc(-c2noc(C)c2COc2cc3c(cn2)CN(C(=O)C2CCS(=O)(=O)CC2)CC3)cn1 [Example 8] ?
Result: Criterion met

* * *

- tested target: human recombinant GABAA α5β3γ2 receptor (Homo sapiens (Human), UniProt P18507+P31644)
- protocol text: Radioligand ([3H]Ro151788) receptor binding assay
- condition description: membranes of HEK cells expressing human recombinant GABAA α5β3γ2; 0.5 nM [3H]Ro151788; 60 minutes at 4° C.; read-out: hGABAA α5 Ki
recorded endpoint: pKi
Answer as the number alone; pKi is minus log10 of concentration in mol/L.

Problem: Given Cc1ccc(-c2nnn(C)c2COc2cc3c(cn2)CN(C(=O)CF)CC3)cn1 , state its recorded pKi.
Result: 8.04

Problem: What do we get for Cc1ccc(-c2noc(C)c2COc2cc3c(nn2)CN(C(=O)NC2CC2)CC3)cn1 ?
Result: 8.66

Problem: What do we get for Cc1ccc(-c2noc(C)c2COc2cc3c(nn2)CN(C(=O)C2CCOCC2)CC3)cn1 ?
Result: 8.00

Consider the additional compound presented here.
Problem: Given Cc1ccc(-c2noc(C)c2COc2cc3c(nn2)CN(C(=O)C2CC2)CC3)cn1 , state its recorded pKi.
Result: 8.36
